- target.of.assay: Tissue-type plasminogen activator (Homo sapiens)
- Sequence (P00750 whole entry): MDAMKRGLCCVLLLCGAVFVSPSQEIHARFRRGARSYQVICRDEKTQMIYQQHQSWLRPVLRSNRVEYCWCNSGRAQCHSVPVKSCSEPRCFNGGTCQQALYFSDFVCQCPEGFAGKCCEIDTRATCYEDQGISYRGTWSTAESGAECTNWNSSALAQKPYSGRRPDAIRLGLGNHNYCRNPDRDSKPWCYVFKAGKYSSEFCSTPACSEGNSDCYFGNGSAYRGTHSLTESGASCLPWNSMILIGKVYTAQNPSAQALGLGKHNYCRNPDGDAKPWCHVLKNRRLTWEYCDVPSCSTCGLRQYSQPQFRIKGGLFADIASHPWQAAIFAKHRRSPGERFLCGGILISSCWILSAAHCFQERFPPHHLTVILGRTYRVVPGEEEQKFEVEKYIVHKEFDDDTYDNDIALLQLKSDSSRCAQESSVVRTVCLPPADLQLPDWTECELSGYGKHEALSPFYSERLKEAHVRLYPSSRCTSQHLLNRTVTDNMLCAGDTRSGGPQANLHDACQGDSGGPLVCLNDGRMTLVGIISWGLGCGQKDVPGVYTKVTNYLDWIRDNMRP
- experimental.details: Activation of plasminogen
measurement.type: pKi
Keep in mind that pKi stands for -log10 of concentration in molar terms.

[[record]]
smi = "Cc1ccc(O)c(C(=O)Nc2ccc(C(=N)N)cc2)c1"
val = 5.16

[[record]]
smi = "Cc1cc(Br)c(O)c(C(=O)Nc2ccc(C(=N)N)cc2)c1"
val = 6.44

[[record]]
smi = "N=C(N)c1ccc(NC(=O)c2cc(Br)ccc2O)cc1"
val = 4.68

[[record]]
smi = "Cc1cc(I)c(O)c(C(=O)Nc2ccc(C(=N)N)cc2)c1"
val = 6.62

[[record]]
smi = "N=C(N)c1ccc(NC(=O)c2cccc(-c3ccccc3)c2O)cc1"
val = 4.28

[[record]]
smi = "Cc1ccc(C(=O)Nc2ccc(C(=N)N)cc2)c(O)c1"
val = 5.44


Exercise: Need pKi of [H]/N=C(/N)c1ccc(NC(=O)c2cc(C)cc(I)c2O)cc1Cl , thanks.
Key: 3.59

Exercise: Field request: pKi | item: N=C(N)c1ccc(NC(=O)c2ccc(Cl)cc2O)cc1
Key: 5.62

Exercise: Would you kindly share the measured pKi for Cc1cc(I)c(O)c(C(=O)Nc2ccc(C(=N)N)c(F)c2)c1 ?
Key: 5.77

Exercise: Returns the measured pKi for the input compound. Input: CCOc1ccc(C(=O)Nc2ccc(C(=N)N)cc2)c(O)c1
Key: 5.70

Exercise: Using the record for N=C(N)c1ccc(NC(=O)c2cc([N+](=O)[O-])ccc2O)cc1 , report its pKi.
Key: 4.03

Exercise: Which value of pKi has been reported for COc1ccc(O)c(C(=O)Nc2ccc(C(=N)N)cc2)c1 in the records?
Key: 5.03

Exercise: pKi lookup needed for Cc1cccc(C(=O)Nc2ccc(C(=N)N)cc2)c1O , thanks.
Key: 5.41

Exercise: Fill in the blank: the reported pKi of N=C(N)c1ccc(NC(=O)c2cccc(Cl)c2O)cc1 is ____.
Key: 5.82

----------
Measurement record for UniProt:P00734; quantity recorded: Ki.
Response body: numeric value in µM, unit text excluded.

[[record]]
smi = "Cc1cccc(C(=O)Nc2ccc(C(=N)N)cc2)c1O"
target_of_assay = "UniProt:P00734"
val = 8

[[record]]
smi = "N=C(N)c1ccc(NC(=O)c2cc([N+](=O)[O-])ccc2O)cc1"
target_of_assay = "UniProt:P00734"
val = 185


Exercise: For the record Cc1cc(I)c(O)c(C(=O)Nc2ccc(C(=N)N)cc2)c1 , what value of Ki is listed for UniProt:P00734?
Key: 0.38

Exercise: Reported Ki for UniProt:P00734, given N=C(N)c1ccc(NC(=O)c2ccc(Cl)cc2O)cc1 ?
Key: 9.5

Exercise: Entry COc1ccc(O)c(C(=O)Nc2ccc(C(=N)N)cc2)c1 , system UniProt:P00734: what Ki was measured?
Key: 12

Exercise: Observed Ki on UniProt:P00734 for N=C(N)c1ccc(NC(=O)c2cccc(-c3ccccc3)c2O)cc1 , please.
Key: 120

Exercise: Please provide the recorded Ki for Cc1cc(Br)c(O)c(C(=O)Nc2ccc(C(=N)N)cc2)c1 , tested on UniProt:P00734.
Key: 0.28

Exercise: Provide the documented Ki with UniProt:P00734 as the system for Cc1ccc(C(=O)Nc2ccc(C(=N)N)cc2)c(O)c1
Key: 10

Exercise: Recorded Ki for N=C(N)c1ccc(NC(=O)c2ccccc2O)cc1 with UniProt:P00734, please?
Key: 22
